target: T1, CNE20
T1 construct: also called CNE20 SOSIP
procedureSummary: Env ELISA, IgG dilution series on SOSIP trimer, area under the binding curve
quantityMeasured: binding result

| binder | binding result |
| --- | --- |
| IO-010 (antibody, V domains shown, also called 10-010) VH: QVQLVQSGAEVKKPGASVTVSCKASGYTFTGYHLHWVRQAPGQGLEWMGWINPFRGAIGYAQKFRGRVTMTRDTSIITAYMELRGLRSDDTAVYFCAREMFDSDDEWSPWRGMVAWGQGTLVTVSS VL: QSALTQPASVSGSPGQSITISCTGTSSDIGGYNLVSWYQQHPGKAPKLMIYDVNKRPSGVSNRFSGSKSGNTASLTISGFQAEDEADYYCCSYADTLVFGGGTKLTVL | binds |
| IO-003 (antibody, V domains shown) VH: QVQLVQSGAEVKKPGASVTVSCKASGYTFTDYFIHWVRQAPGQGLEWMGWINPFRGAVDYAQKFRGRVTMTRDTSITTAYMELSRLRSDDTAVYYCARAMFDSSDEWSPWHGLVAWGQGTLVTVSS VL: QSALTQPASVSGSPGQSITISCTGTSRDIGSFNLVSWYQQHPGKAPKLMIYDVSKRPSGVSNRFSGSKSDNMASLIISGFQAEDEAEYFCCSFAGSLAFGGGTKLTVL | binds |
| IO-050 (antibody, V domains shown) VH: QVQLVQSGAEVKKPGASVRVSCKASGYTFTDYEIHWVRQAPGQGLEWMGWINPFRGAVKYRQKFQGRVTMTRDPSITTAYMELSRLRSDDTARYYCAREMFDSDDEWSPWRGMVAWGQGTLVTVSS VL: QSALTQPASVSGSPGQSITISCTGTSSDVGSYNLVSWYQQHPGKAPKLMIYEVSRRPSGVSNRFSGSKSGNTASLTISGFQAEDEADYYCCSYADTLIFGGGTKLTVL | binds |
| IO-008 (antibody, V domains shown) VH: QVQLVQSGAEVKKPGASVTVSCKASGYTFTGYELHWVRQAPGQGLEWMGWINPYRGAVKYAQKFQGRVTMTRDTSISTAYMVLNGLRSDDTAVYYCARDMFDSSDEWSPWRGMVAWGQGTPVTVSS VL: QSALTQPASVSGSPGQSITISCTGTSSDVGSYDLVSWYQQHPGKAPKLMIYEVSKRPSGVSNRFSGSKSGNTASLTISGLQAEDEADYYCCSYADSLVFGGGTKVTGL | binds |

Exercise: Suppose we examine the binder IOMA IgG (antibody, V domains shown, Mature CD4bs bNAb; also called mature IOMA) VH: EVQLVESGAQVKKPGASVTVSCTASGYKFTGYHMHWVRQAPGRGLEWMGWINPFRGAVKYPQNFRGRVSMTRDTSMEIFYMELSRLTSDDTAVYYCAREMFDSSADWSPWRGMVAWGQGTLVTVSS VL: QSALTQPASVSGSPGQSITISCAGSSRDVGGFDLVSWYQQHPGKAPKLIIYEVNKRPSGISSRFSASKSGNTASLTISGLQEEDEAHYYCYSYADGVAFGGGTKLTVLG ; what binding result value has been reported?
Key: binds
